Measured IC50 of individual entries
molecular target: Recombinant JAK3 (Homo sapiens, UniProt P52333); construct: purchased Carna Biosciences; experiment: JAK biochemical assay (LANCE Ultra TR-FRET), JAK3; settings: recombinant JAK3, TR-FRET; read-out: Biochemical Assay (μM) JAK3
Sequence (P52333 whole entry): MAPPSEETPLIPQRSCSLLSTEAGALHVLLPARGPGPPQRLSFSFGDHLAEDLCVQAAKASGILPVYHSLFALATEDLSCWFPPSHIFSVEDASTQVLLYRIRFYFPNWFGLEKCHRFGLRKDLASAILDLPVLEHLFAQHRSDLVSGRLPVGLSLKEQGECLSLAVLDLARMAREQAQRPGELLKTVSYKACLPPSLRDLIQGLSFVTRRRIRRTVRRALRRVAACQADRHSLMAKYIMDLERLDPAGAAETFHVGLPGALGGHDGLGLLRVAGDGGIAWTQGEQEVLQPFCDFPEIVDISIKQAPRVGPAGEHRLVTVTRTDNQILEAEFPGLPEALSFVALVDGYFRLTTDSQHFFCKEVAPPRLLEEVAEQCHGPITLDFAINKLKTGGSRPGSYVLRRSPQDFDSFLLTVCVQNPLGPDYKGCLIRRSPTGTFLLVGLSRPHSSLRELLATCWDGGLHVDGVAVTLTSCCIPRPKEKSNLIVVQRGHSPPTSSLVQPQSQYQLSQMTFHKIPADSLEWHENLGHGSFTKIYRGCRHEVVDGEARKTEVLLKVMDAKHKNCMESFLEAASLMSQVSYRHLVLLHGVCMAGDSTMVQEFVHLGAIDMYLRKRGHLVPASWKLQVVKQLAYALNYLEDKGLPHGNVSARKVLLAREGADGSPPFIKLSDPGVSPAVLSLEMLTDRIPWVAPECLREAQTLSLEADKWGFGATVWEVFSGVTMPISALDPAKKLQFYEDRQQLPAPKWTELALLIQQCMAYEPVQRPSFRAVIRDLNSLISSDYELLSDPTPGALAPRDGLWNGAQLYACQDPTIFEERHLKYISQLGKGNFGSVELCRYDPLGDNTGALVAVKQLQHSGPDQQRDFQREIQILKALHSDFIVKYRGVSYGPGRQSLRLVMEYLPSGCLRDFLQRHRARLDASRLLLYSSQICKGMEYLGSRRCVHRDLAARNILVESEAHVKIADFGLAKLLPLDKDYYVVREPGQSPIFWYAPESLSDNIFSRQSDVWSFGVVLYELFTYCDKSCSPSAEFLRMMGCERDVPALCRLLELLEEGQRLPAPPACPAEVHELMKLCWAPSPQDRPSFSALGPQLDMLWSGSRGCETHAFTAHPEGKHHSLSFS
Where a name gives a salt, the structure may show the parent alone.
parameter: IC50

[[record]]
compound = "COc1cc(NC(=O)N2CCN(c3ccnc4[nH]c(=O)[nH]c34)CC2)ccn1"
value_measured = "> 1 µM"

[[record]]
compound = "CS(=O)(=O)CCC(c1ccc(-n2cc(-c3ccnc4[nH]cnc34)cn2)cc1)C(F)(F)F (centres unmarked)"
value_measured = "< 0.1 µM"

[[record]]
compound = "CNCCOC(c1ccc(-n2cc(-c3ccnc4[nH]cnc34)cn2)nc1)C(F)(F)F (centres unmarked)"
value_measured = "< 0.1 µM"

[[record]]
compound = "N#CC1CN(C(=O)CCC(c2ccc(-n3cc(-c4ccnc5[nH]cnc45)cn3)nc2)C(F)(F)F)C1 (centres unmarked)"
value_measured = "< 0.1 µM"

[[record]]
compound = "N#CCCC(O)(c1ccc(-n2cc(-c3ccnc4[nH]cnc34)cn2)nc1)C(F)(F)F (centres unmarked)"
value_measured = "< 0.1 µM"

[[record]]
compound = "CS(=O)(=O)COC(c1ccc(-n2cc(-c3ccnc4[nH]cnc34)cn2)nc1)C(F)(F)F (centres unmarked)"
value_measured = "< 0.1 µM"

[[record]]
compound = "CC(C)NC(=O)CCC(c1ccc(-n2cc(-c3ccnc4[nH]cnc34)cn2)nc1)C(F)(F)F (centres unmarked)"
value_measured = "< 0.1 µM"

[[record]]
compound = "CC1(C)CN(C(=O)N2CCN(c3ccnc4[nH]c(=O)[nH]c34)CC2)C1"
value_measured = "> 10 µM"

[[record]]
compound = "CC(=O)N1CCC(C(O)(c2ccc(-n3cc(-c4ccnc5[nH]cnc45)cn3)nc2)C(F)(F)F)CC1 (centres unmarked)"
value_measured = "0.11 µM"

[[record]]
compound = "CS(=O)(=O)N1CCC(C(O)c2ccc(-n3cc(-c4ccnc5[nH]cnc45)cn3)nc2)CC1 (centres unmarked)"
value_measured = "> 1 µM"

[[record]]
compound = "N#CCNC(=O)N1CCN(c2ccnc3[nH]c(=O)[nH]c23)CC1"
value_measured = "> 1 µM"

[[record]]
compound = "N#CCC(=O)NCc1ccc(-n2cc(-c3ccnc4[nH]cnc34)cn2)nc1"
value_measured = "> 0.5 µM"

[[record]]
compound = "OC(c1ccc(-n2cc(-c3ccnc4[nH]cnc34)cn2)nc1)(C1CCOCC1)C(F)(F)F (centres unmarked)"
value_measured = "< 0.1 µM"

[[record]]
compound = "CC(C)(O)CC(c1ccc(-n2cc(-c3ccnc4[nH]cnc34)cn2)nc1)C(F)(F)F (centres unmarked)"
value_measured = "> 0.1 µM"

[[record]]
compound = "CC(C(N)=O)c1ccc(-n2cc(-c3ccnc4[nH]cnc34)cn2)nc1 (centres unmarked)"
value_measured = "> 0.1 µM"

[[record]]
compound = "N#CCc1ccc(-n2cc(-c3ccnc4[nH]cnc34)cn2)cc1F"
value_measured = "< 0.5 µM"

[[record]]
compound = "CC(C)OC(c1ccc(-n2cc(-c3ccnc4[nH]cnc34)cn2)nc1)C(F)(F)F (centres unmarked)"
value_measured = "> 0.5 µM"

[[record]]
compound = "N#CC1CN(CCC(c2ccc(-n3cc(-c4ccnc5[nH]cnc45)cn3)nc2)C(F)(F)F)C1 (centres unmarked)"
value_measured = "< 0.1 µM"

[[record]]
compound = "CS(=O)(=O)CCC(c1ccc(-n2cc(-c3ccnc4[nH]cnc34)cn2)nc1)C1COC1 (centres unmarked)"
value_measured = "> 0.5 µM"

[[record]]
compound = "CC(CCS(C)(=O)=O)c1ccc(-n2cc(-c3ccnc4[nH]cnc34)cn2)nc1 (centres unmarked)"
value_measured = "> 0.5 µM"

[[record]]
compound = "CC(C)NCCC(c1ccc(-n2cc(-c3ccnc4[nH]cnc34)cn2)nc1)C(F)(F)F (centres unmarked)"
value_measured = "< 0.1 µM"

[[record]]
compound = "CN(CCC(c1ccc(-n2cc(-c3ccnc4[nH]cnc34)cn2)nc1)C(F)(F)F)C1CC1 (centres unmarked)"
value_measured = "< 0.1 µM"

[[record]]
compound = "N#CC(NC(=O)n1cc(-c2ccnc3[nH]c(=O)[nH]c23)cn1)C1CCCC1 (centres unmarked)"
value_measured = "> 0.5 µM"

[[record]]
compound = "CNCC[C@@H](c1ccc(-n2cc(-c3ccnc4[nH]cnc34)cn2)nc1)C(F)(F)F [Example 1217, TFA salt]"
value_measured = "0.006 µM"

[[record]]
compound = "N#CC1(c2ccc(-n3cc(-c4ccnc5[nH]cnc45)cn3)nc2)CC1"
value_measured = "< 0.5 µM"

[[record]]
compound = "COC(c1ccc(-n2cc(-c3ccnc4[nH]cnc34)cn2)nc1)(C1CC1)C(F)(F)F (centres unmarked)"
value_measured = "> 1 µM"

[[record]]
compound = "COC(c1cccc(-n2cc(-c3ccnc4[nH]cnc34)cn2)n1)C(F)(F)F (centres unmarked)"
value_measured = "> 1 µM"

[[record]]
compound = "O=C(N1CCN(c2ccnc3[nH]c(=O)[nH]c23)CC1)N1CCS(=O)(=O)CC1"
value_measured = "> 10 µM"

[[record]]
compound = "O=C(Cc1ccc(-n2cc(-c3ccnc4[nH]cnc34)cn2)nc1)NCC(F)(F)F"
value_measured = "> 1 µM"

[[record]]
compound = "N#CCC(NC(=O)n1cc(-c2ccnc3[nH]c(=O)[nH]c23)cn1)C1CCOCC1 (centres unmarked)"
value_measured = "< 0.5 µM"

[[record]]
compound = "O=C(Nc1ccncc1)Nc1ccc(-c2ccnc3[nH]c(=O)[nH]c23)cc1"
value_measured = "> 1 µM"

[[record]]
compound = "N#CCc1csc(-n2cc(-c3ccnc4[nH]cnc34)cn2)n1"
value_measured = "< 0.5 µM"


From: patent US12516056B2
